System: PC-3 prostate
Experimental Protocol: NCI-60 one-dose screen, 48 h
Test Parameters: 10 µM unless noted
The panel holds about 83,000 compounds, 20% with a hit somewhere; the sample as a whole holds those more often. Active and inactive are the calls of the source. The calls were made as follows: active = growth percent below 10; inactive = the rest.
Labels: t = active, f = inactive

molecule=COc1cc(C(=O)Nc2cc(OC)c3ccn(C)c3c2)cc2c1C[C@]1(C)CC[C@@H](O)C(C)(C)[C@H]1O2 class_assignment=t
molecule=C=C1C(=O)O[C@H]2[C@H]1CCC(/C=N/c1ncc(Br)cc1N)=C\CC[C@@]1(C)O[C@@H]21 class_assignment=f
molecule=Cc1cc(Cl)cc(CN(Cc2ccccc2)Cc2c(O)ccc3ccccc23)c1O class_assignment=f
molecule=COc1ccc(-c2cc(-c3nnc(SCC(=O)Nc4ccc(/C(C)=N\O)cc4)n3-c3ccccc3)c3cc(OC)ccc3n2)cc1 class_assignment=f
molecule="c1cc(CNC23CC4CC(CC(C4)C2)C3)cc(C[N+](Cc2cccc(CNC34CC5CC(CC(C5)C3)C4)c2)(Cc2cccc(CNC34CC5CC(CC(C5)C3)C4)c2)Cc2cccc(CNC34CC5CC(CC(C5)C3)C4)c2)c1 (stereo unspecified)" class_assignment=f
molecule=Fc1ccc(N/N=C/c2ccc(-n3cccn3)cc2)cc1 class_assignment=f
molecule=NC(=O)c1ccc2nc3c(n2c1)C(=O)C(=O)c1ccccc1-3 class_assignment=t
molecule=C#C[C@@]1(O)[C@@H](CO)O[C@@H](n2cc(F)c3c(N)ncnc32)[C@@H]1O class_assignment=t
molecule="Cc1ccc(SC2c3ccc(C)cc3Oc3nc(N)c(C#N)c(N)c32)cc1 (stereo unspecified)" class_assignment=f
molecule=O=[N+]([O-])c1cccc(CN(Cc2cccc([N+](=O)[O-])c2O)c2ccccc2)c1O class_assignment=f
molecule=CCCCCOC(=O)c1ccccc1O class_assignment=f
molecule=CCOC(=O)c1c(C(F)(F)F)n([O-])c2ccc(Cl)cc2[n+]1=O class_assignment=t
molecule="OCCNc1nc(NCCO)nc(Nc2ccc(C3=NN(c4cc(Cl)cc(Cl)c4)C(c4ccc(C(F)(F)F)cc4)C3)cc2)n1 (stereo unspecified)" class_assignment=f
molecule="O=c1c2ccccc2n(CC(O)CN2CCCC2)c2c(Br)cccc12 (stereo unspecified)" class_assignment=f
molecule=COc1cc(/C=C/C(=O)c2cccs2)ccc1OCc1ccc(Cl)nc1 class_assignment=f
molecule="O=C1NN(c2ccccc2)C(c2ccc(Cl)cc2)N2CCC[C@H]12 (stereo partly specified)" class_assignment=f
molecule=Cc1c(Cl)cccc1NC(=O)c1sc2nc3c(cc2c1N)COCC3 class_assignment=f
molecule=Cc1ccc(-c2nc(C#N)c(S(=O)(=O)N(C)CCO)o2)cc1 class_assignment=f
molecule=Nc1c(C(=O)Nc2ccccn2)sc2nc3c(cc12)CCCCC3 class_assignment=f
molecule=CCOC(=O)C1CCN(S(=O)(=O)/N=C2/NC(=O)NC2=C(Cl)Cl)CC1 class_assignment=f
molecule=CCC[S@@](=O)c1ccc2nc(NC(=O)OC)[nH]c2c1 class_assignment=f

----------
growth for assorted compounds
Test system: SK-MEL-5 melanoma
Experimental Protocol: NCI-60 one-dose screen, 48 h (100 = growth as untreated, 0 = no growth, -100 = all killed)
Test Parameters: 10 µM unless noted
This is part of a sample that, as a whole, favours compounds with a hit. Of some 83,000 tested, about 20% had one in any assay.
Readout Kind: growth (%)

compound=C=C1C(=O)O[C@H]2[C@H]1CC/C(COC(=O)CCCCCCCCC(=O)OC/C1=C/CC[C@@]3(C)O[C@H]3[C@H]3OC(=O)C(=C)[C@@H]3CC1)=C\CC[C@@]1(C)O[C@@H]21 experimental_system="SK-MEL-5 melanoma" units_text=% quantitative_readout=-32.6
compound=COc1ccc(-c2cc(-c3nnc(SCC(=O)Nc4ccc(/C(C)=N\O)cc4)o3)c3ccccc3n2)cc1 experimental_system="SK-MEL-5 melanoma" units_text=% quantitative_readout=99.2
compound=Cc1nccc2c3ccc(OCc4cn(-c5ccc(Br)cc5)nn4)cc3n(CC(C)C)c12 experimental_system="SK-MEL-5 melanoma" units_text=% quantitative_readout=13.1
compound=C=C(C)[C@@H]1CC[C@]2(C(=O)OCCCC[P+](c3ccccc3)(c3ccccc3)c3ccccc3)CC[C@]3(C)[C@H](CC[C@@H]4[C@@]5(C)CC[C@H](OC(=O)C(Cl)Cl)C(C)(C)[C@@H]5CC[C@]43C)[C@@H]12 experimental_system="SK-MEL-5 melanoma" units_text=% quantitative_readout=-99.4
compound=NC(N)=NC(N)=Nc1cc2ccccc2c2ccccc12 experimental_system="SK-MEL-5 melanoma" units_text=% quantitative_readout=45.6
compound=CC(C)(C)c1ccc2oc(=O)n(SC(Cl)(Cl)Cl)c2c1 experimental_system="SK-MEL-5 melanoma" units_text=% quantitative_readout=107
compound=CC(C)(C)CC(C)(C)Cc1ccc(OCCOCC[N+](C)(C)Cc2ccccc2)cc1 experimental_system="SK-MEL-5 melanoma" units_text=% quantitative_readout=-98.8
compound=COc1ccc(-c2[nH]c3ccc(OC)cc3c2C=C(C#N)C#N)cc1 experimental_system="SK-MEL-5 melanoma" units_text=% quantitative_readout=15.5
compound=COc1cc(C(=O)Nc2cc(OC)c3ccn(C)c3c2)cc2c1C[C@]1(C)CC[C@@H](O)C(C)(C)[C@H]1O2 experimental_system="SK-MEL-5 melanoma" units_text=% quantitative_readout=-34.8
compound=CN(C)C1=NCCN1 experimental_system="SK-MEL-5 melanoma" units_text=% quantitative_readout=103
compound="CCCCc1nc(Cl)c(C2CC(c3ccc(Cl)cc3)=NN2c2cc(Cl)cc(Cl)c2)[nH]1 (stereo not drawn)" experimental_system="SK-MEL-5 melanoma" units_text=% quantitative_readout=69.1
compound=C=C1C(=O)O[C@H]2[C@H]1CC/C(COC(=O)CCCCCCCC(=O)OC/C1=C/CC[C@@]3(C)O[C@H]3[C@H]3OC(=O)C(=C)[C@@H]3CC1)=C\CC[C@@]1(C)O[C@@H]21 experimental_system="SK-MEL-5 melanoma" units_text=% quantitative_readout=17.5
compound=COc1cc(/C=C/CO)cc(OC)c1O[C@@H]1O[C@H](CO)[C@@H](O)[C@H](O)[C@H]1O experimental_system="SK-MEL-5 melanoma" units_text=% quantitative_readout=98.9
compound=Cc1c(Cl)cccc1NC(=O)c1sc2nc3c(cc2c1N)CCCCC3 experimental_system="SK-MEL-5 melanoma" units_text=% quantitative_readout=45.8
compound=COc1cc(NC(=O)c2cc(O)c(C/C=C(\C)CCC=C(C)C)c(O)c2)cc2c1O[C@]1(C)CC[C@@H](O)C(C)(C)[C@H]1C2 experimental_system="SK-MEL-5 melanoma" units_text=% quantitative_readout=-68.2
compound=COc1ccc(N(C)c2nc(Cl)nc3ccn(C)c23)cc1 experimental_system="SK-MEL-5 melanoma" units_text=% quantitative_readout=-44.2
compound="O=CN1N=C(c2ccc(F)cc2)CC1c1cccc(Nc2ccnc3cc(C(F)(F)F)ccc23)c1 (stereo not drawn)" experimental_system="SK-MEL-5 melanoma" units_text=% quantitative_readout=-15.2
compound=Cc1c(C(=O)Nc2nc3ccccc3[nH]2)cnn1-c1ccccn1 experimental_system="SK-MEL-5 melanoma" units_text=% quantitative_readout=99.9
